test system: cells of the mammary carcinoma cell line MCF-7; assay: Tumor cell growth inhibition, SRB-assay, MCF-7; assay type: cell-based; conditions: 50% growth inhibition, three days incubation in serum-containing medium
pIC50: −log10 of the molar value.
assayMetric: pIC50

[[record]]
smilesinput = "O=C1Nc2ccccc2C1=C1Nc2ccccc2C1=NOCCNC[C@H](O)[C@@H](O)[C@H](O)[C@H](O)CO"
valuemeasured = 5.52

[[record]]
smilesinput = "NCCNC(=O)Cc1ccc2c(c1)C(=C1Nc3ccccc3C1=O)C(=O)N2"
valuemeasured = 5.40

[[record]]
smilesinput = "NC(=O)CON=C1C(=C2C(=O)Nc3ccccc32)Nc2ccccc21"
valuemeasured = 5.22

[[record]]
smilesinput = "NCCNc1ccc2c(c1)C(=C1Nc3ccccc3C1=O)C(=O)N2"
valuemeasured = 5.46

[[record]]
smilesinput = "CC(=O)Nc1ccc2c(c1)C(=C1Nc3ccccc3C1=NO)C(=O)N2"
valuemeasured = 5.30


###

tested on: LXFL-529L cells; assay: Cellular uptake by LXFL-529L cells; assay type: cell-based; settings: concentration of incubation 20 μM, 2 hours
# label = Y if distribution cytosol < 20% else N

[[record]]
smilesinput = "O=C1Nc2ccccc2C1=C1Nc2ccccc2C1=NOCCO"
labelvalue = "Y"

[[record]]
smilesinput = "CCc1ccc2c(c1)C(=C1Nc3ccccc3C1=NO)C(=O)N2"
labelvalue = "Y"

[[record]]
smilesinput = "Nc1ccc2c(c1)C(=C1Nc3ccccc3C1=NO)C(=O)N2"
labelvalue = "N"

[[record]]
smilesinput = "CCc1ccc2c(c1)/C(=C1/Nc3ccccc3C1=O)C(=O)N2"
labelvalue = "Y"

[[record]]
smilesinput = "Nc1ccc2c(c1)C(=C1Nc3ccccc3C1=O)C(=O)N2"
labelvalue = "Y"

[[record]]
smilesinput = "Cc1ccc2c(c1)C(=C1Nc3ccccc3C1=NO)C(=O)N2"
labelvalue = "Y"


###

test system: cells of the mammary carcinoma cell line MCF-7; assay: Tumor cell growth inhibition, SRB-assay, MCF-7; format: cell-based; conditions: 50% growth inhibition, three days incubation in serum-containing medium
pIC50: −log10 of the molar value. Structures can show the parent of a compound that is named as a salt.
The entries below come with measured pIC50 values attached.
assayMetric: pIC50

[[record]]
compound = "CN(C)C(=O)ON=C1C(=C2C(=O)Nc3ccccc32)Nc2ccccc21"
assaymetric = "pIC50"
valuemeasured = 5.12

[[record]]
compound = "O=C(O)CCCCON=C1C(=C2C(=O)Nc3ccccc32)Nc2ccccc21 [Example 38, (Sodium Salt)]"
assaymetric = "pIC50"
valuemeasured = 4.85

[[record]]
compound = "COC(=O)CNS(=O)(=O)c1ccc2c(c1)C(=C1Nc3ccccc3C1=O)C(=O)N2"
assaymetric = "pIC50"
valuemeasured = 4.60

[[record]]
compound = "COC(=O)CNC(=O)Cc1ccc2c(c1)C(=C1Nc3ccccc3C1=O)C(=O)N2"
assaymetric = "pIC50"
valuemeasured = 5.19

[[record]]
compound = "CC(C)(O)CON=C1C(=C2C(=O)Nc3ccccc32)Nc2ccccc21"
assaymetric = "pIC50"
valuemeasured = 5.70

[[record]]
compound = "O=C1Nc2ccccc2C1=C1Nc2ccccc2C1=NOCCOCCO"
assaymetric = "pIC50"
valuemeasured = 5.60

[[record]]
compound = "CCOP(=O)(Cc1ccc2c(c1)C(=C1Nc3ccccc3C1=O)C(=O)N2)OCC"
assaymetric = "pIC50"
valuemeasured = 5.22

[[record]]
compound = "O=C1Nc2ccccc2C1=C1Nc2ccccc2C1=NOCCO"
assaymetric = "pIC50"
valuemeasured = 5.60

[[record]]
compound = "O=C(O)CCCON=C1C(=C2C(=O)Nc3ccccc32)Nc2ccccc21 [Example 37, (Sodium Salt)]"
assaymetric = "pIC50"
valuemeasured = 4.85


Reference source: patent US6987092B1
